system: Moraxella M1; assay: MIC, agar incorporation method; type: cell-based; conditions: S. No. 58, Moraxella M1; read-out: MIC
Metric: MIC (µg/mL)
Give bare numbers, in µg/mL.

Here are 3 molecules. What values of MIC were reported for them?
1. CC(=O)NC[C@H]1CN(c2ccc(N3CCN(c4ccc(C=O)o4)CC3)c(F)c2)C(=O)O1
2. CC(=O)NC[C@H]1CN(c2ccc(N3CCN(c4ccc([N+](=O)[O-])s4)CC3)c(F)c2)C(=O)O1
3. CC(=O)NC[C@H]1CN(c2ccc(N3CCN(c4ccc(C=O)s4)CC3)c(F)c2)C(=O)O1

(A)
1: 2; 2: 1; 3: 0.5

---

Provide the reported MIC of each item.
system: S. pneumoniae ATCC 6303; assay: MIC, agar incorporation method; format: cell-based, Streptococcus pneumoniae; settings: Streptococcus pneumoniae, ATCC6303
Put down the number, then write its unit next to it.

>>> result("O=C(NC[C@H]1CN(c2ccc(N3CCN(c4ccc([N+](=O)[O-])s4)CC3)c(F)c2)C(=O)O1)C(F)F")
"0.25 µg/mL"
>>> result("CN[C@H](CC(C)C)C(=O)N[C@H]1C(=O)N[C@@H](CC(N)=O)C(=O)N[C@H]2C(=O)N[C@H]3C(=O)N[C@H](C(=O)N[C@H](C(=O)O)c4cc(O)cc(O)c4-c4cc3ccc4O)[C@H](O)c3ccc(c(Cl)c3)Oc3cc2cc(c3O[C@@H]2O[C@H](CO)[C@@H](O)[C@H](O)[C@H]2O[C@H]2C[C@](C)(N)[C@H](O)[C@H](C)O2)Oc2ccc(cc2Cl)[C@H]1O [Vancomycin, reference compound]")
"0.25 µg/mL"
>>> result("CC(=O)NC[C@H]1CN(c2ccc(N3CCOCC3)c(F)c2)C(=O)O1 [Linezolid, reference compound]")
"1 µg/mL"

Attention now shifts to the item below.
(Q) Fill blank: measured MIC of the compound CC(=O)NC[C@H]1CN(c2ccc(N3CCN(c4ccc([N+](=O)[O-])s4)CC3)c(F)c2)C(=O)O1 is ____.
(A) 0.125 µg/mL

---

test system: H. influenzae βIac; assay: MIC against Haemophilus strains; format: cell-based; settings: Haemophilus influenzae; s. No. 3, H. influenzae βIac; read-out: MIC
Metric: MIC

>>> result("CC(=O)NC[C@H]1CN(c2ccc(N3CCN(c4ccc(C=O)o4)CC3)c(F)c2)C(=O)O1 [Compound No. 3]")
"4 µg/mL"
>>> result("CC(=O)NC[C@H]1CN(c2ccc(N3CCOCC3)c(F)c2)C(=O)O1 [Linezolid, reference compound]")
"8 µg/mL"
>>> result("CC(=O)NC[C@H]1CN(c2ccc(N3CCN(c4ccc(C=O)s4)CC3)c(F)c2)C(=O)O1 [Compound No. 2]")
"16 µg/mL"

Here are 2 molecules. What values of MIC were reported for them?
1. CC(=O)NC[C@H]1CN(c2ccc(N3CCN(c4ccc([N+](=O)[O-])s4)CC3)c(F)c2)C(=O)O1 [Compound No. 1]
2. CC[C@H]1OC(=O)[C@H](C)C(=O)[C@H](C)[C@@H](O[C@@H]2O[C@H](C)C[C@H](N(C)C)[C@H]2O)[C@](C)(OC)C[C@@H](C)C(=O)[C@H](C)[C@H]2N(CCCCn3cnc(-c4cccnc4)c3)C(=O)O[C@]12C [Telithromycin, reference compound]

(A)
["8 µg/mL", "2 µg/mL"]

---

Provide the reported MIC of each item.
tested on: S. pneumoniae AB 17; assay: MIC, agar incorporation method; type: cell-based, Streptococcus pneumoniae; settings: S. No. 40, S. pneumoniae AB 17
Put down the number, then write its unit next to it.

>>> result("CC(=O)NC[C@H]1CN(c2ccc(N3CCN(c4cc(C(OC(C)=O)OC(C)=O)sc4[N+](=O)[O-])CC3)c(F)c2)C(=O)O1")
"0.5 µg/mL"
>>> result("CC(=O)NC[C@H]1CN(c2ccc(N3CCN(c4ccc([N+](=O)[O-])s4)CC3)cc2)C(=O)O1")
"0.25 µg/mL"
>>> result("C[C@H](Cl)C(=O)NCC1CN(c2ccc(N3CCN(c4ccc([N+](=O)[O-])s4)CC3)c(F)c2)C(=O)O1 (stereo partly shown)")
"1 µg/mL"

(Q) Fill blank: measured MIC of the molecule O=C(NC[C@H]1CN(c2ccc(N3CCN(c4ccc([N+](=O)[O-])s4)CC3)c(F)c2)C(=O)O1)C(Cl)Cl is ____.
(A) 0.25 µg/mL

---

system: S. pneumoniae AB 10; assay: MIC, agar incorporation method; type: cell-based, Streptococcus pneumoniae; conditions: S. No. 35, S. pneumoniae AB 10
Provide the reported MIC of each item.
Numbers only, in µg/mL.

Below: 3 molecules and their reported MIC.
>>> result("C[C@H](Cl)C(=O)NCC1CN(c2ccc(N3CCN(c4ccc([N+](=O)[O-])s4)CC3)c(F)c2)C(=O)O1 (stereo partly shown)")
0.5
>>> result("CC(=O)NC[C@H]1CN(c2ccc(N3CCN(c4cc(C(OC(C)=O)OC(C)=O)sc4[N+](=O)[O-])CC3)c(F)c2)C(=O)O1")
0.25
>>> result("CC(=O)NC[C@H]1CN(c2ccc(N3CCN(c4ccc([N+](=O)[O-])s4)CC3)cc2)C(=O)O1")
0.25

(Q) Fill blank: measured MIC of the molecule O=C(NC[C@H]1CN(c2ccc(N3CCN(c4ccc([N+](=O)[O-])s4)CC3)c(F)c2)C(=O)O1)C(Cl)Cl is ____.
(A) 0.25

---

Provide the reported MIC of each item.
system: H. influenzae βIac; test: MIC against Haemophilus strains; assay type: cell-based; settings: s. No. 3, H. influenzae βIac
Answers are plain numbers, in µg/mL.

>>> result("CC(=O)NC[C@H]1CN(c2ccc(N3CCN(c4ccc([N+](=O)[O-])s4)CC3)cc2)C(=O)O1")
8

Attention now shifts to the item below.
(Q) Fill blank: measured MIC of the compound C[C@H]1COc2c(N3CCN(C)CC3)c(F)cc3c(=O)c(C(=O)O)cn1c23 [LevoFloxaci, reference compound] is ____.
(A) 0.008

---

Provide the reported MIC of each item.
test system: M. tuberculosis SGPGI; assay: MIC against M. tuberculosis strains, agar dilution; type: cell-based, Mycobacterium tuberculosis; conditions: S. No. 06 Mt-, Middle Brook 7H10 + OADC, 37° C., 14-21 days
Give bare numbers, in µg/mL.

>>> result("CC[C@H]1OC(=O)[C@H](C)[C@@H](O[C@H]2C[C@@](C)(OC)[C@@H](O)[C@H](C)O2)[C@H](C)[C@@H](O[C@@H]2O[C@H](C)C[C@H](N(C)C)[C@H]2O)[C@](C)(OC)C[C@@H](C)C(=O)[C@H](C)[C@@H](O)[C@]1(C)O")
32
>>> result("NNC(=O)c1ccncc1")
16

Attention now shifts to the item below.
(Q) API: value(readout=MIC, system=M. tuberculosis SGPGI) for record C[C@@H]1CN(c2c(F)c(N)c3c(=O)c(C(=O)O)cn(C4CC4)c3c2F)C[C@H](C)N1
(A) 4.0

---

system: H. influenzae 451; assay: MIC against Haemophilus strains; assay type: cell-based; settings: s. No. 8, H. influenzae 451
Provide the reported MIC of each item.
Numbers only, in µg/mL.

>>> result("CC(=O)NC[C@H]1CN(c2ccc(N3CCN(c4ccc([N+](=O)[O-])s4)CC3)cc2)C(=O)O1")
16

(Q) Fill blank: measured MIC of the molecule CO/N=C(\C(=O)N[C@@H]1C(=O)N2C(C(=O)O)=C(CSc3nc(=O)c(O)nn3C)CS[C@H]12)c1csc(N)n1 [Ceftriaxone, reference compound] is ____.
(A) 0.008

---

Provide the reported MIC of each item.
tested on: Moraxella cata. M2; assay: MIC, agar incorporation method; assay type: cell-based; conditions: S. No. 59, Moraxella cata. M2
Numbers only, in µg/mL.

Below: 2 compounds and their reported MIC.
>>> result("CC(=O)NC[C@H]1CN(c2ccc(N3CCN(c4cc(C(OC(C)=O)OC(C)=O)sc4[N+](=O)[O-])CC3)c(F)c2)C(=O)O1 [Compound No. 5]")
2
>>> result("O=C(NC[C@H]1CN(c2ccc(N3CCN(c4ccc([N+](=O)[O-])s4)CC3)c(F)c2)C(=O)O1)C(Cl)Cl [compound 9]")
1

Attention now shifts to the item below.
(Q) Fill blank: measured MIC of the compound CC(=O)NC[C@H]1CN(c2ccc(N3CCN(c4ccc([N+](=O)[O-])s4)CC3)cc2)C(=O)O1 [Compound No. 6] is ____.
(A) 8

---

test system: Acinetobacter 9956; test: MIC, agar incorporation method; type: cell-based; conditions: S. No. 30, Acinetobacter 9956
Provide the reported MIC of each item.

Below: 3 molecules and their reported MIC.
>>> result("C[C@H](Cl)C(=O)NCC1CN(c2ccc(N3CCN(c4ccc([N+](=O)[O-])s4)CC3)c(F)c2)C(=O)O1 (stereo partly shown)")
">8 µg/mL"
>>> result("O=C(NC[C@H]1CN(c2ccc(N3CCN(c4ccc([N+](=O)[O-])s4)CC3)c(F)c2)C(=O)O1)C(Cl)Cl")
">8 µg/mL"
>>> result("CC(=O)NC[C@H]1CN(c2ccc(N3CCN(c4ccc([N+](=O)[O-])s4)CC3)cc2)C(=O)O1")
">16 µg/mL"

Attention now shifts to the item below.
(Q) API: value(readout=MIC, system=Acinetobacter 9956) for record CC(=O)NC[C@H]1CN(c2ccc(N3CCN(c4cc(C(OC(C)=O)OC(C)=O)sc4[N+](=O)[O-])CC3)c(F)c2)C(=O)O1
(A) >8 µg/mL
